Cited source: paper PMC6151407

experimentalTarget: electric eel AChE (EC3.1.1.7) (Electrophorus electricus)
Construct: purchased Sigma-Aldrich Chemical Company (St. Louis, MO, USA)
assayProtocol: biochemical
experimentalContext: IC50 AChE
readoutLabel: IC50

get_value(item= `CC[C@H](CC[C@@H](C)[C@H]1CC[C@H]2[C@@H]3CC=C4C[C@@H](O)CC[C@]4(C)[C@H]3CC[C@]12C)C(C)C` , readout=IC50) returns > 500 µM

* * *

experimentalTarget: BACE1 (Homo sapiens)
Sequence (P56817 46-501): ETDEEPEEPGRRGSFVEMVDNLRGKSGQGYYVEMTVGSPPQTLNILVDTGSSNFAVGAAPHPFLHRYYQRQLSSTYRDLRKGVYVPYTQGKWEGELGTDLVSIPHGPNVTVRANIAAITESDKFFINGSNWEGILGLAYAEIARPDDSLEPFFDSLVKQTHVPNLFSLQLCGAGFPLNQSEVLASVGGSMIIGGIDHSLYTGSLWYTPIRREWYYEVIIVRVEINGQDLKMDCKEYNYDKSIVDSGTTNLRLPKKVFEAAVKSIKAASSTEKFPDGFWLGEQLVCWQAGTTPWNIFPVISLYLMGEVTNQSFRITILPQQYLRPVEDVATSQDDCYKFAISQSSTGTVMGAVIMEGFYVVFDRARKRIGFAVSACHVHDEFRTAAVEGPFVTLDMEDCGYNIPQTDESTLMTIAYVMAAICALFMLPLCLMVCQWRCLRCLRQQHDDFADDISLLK
assayProtocol: BACE1 FRET assay kit (β-secretase) inhibition
experimentalContext: isolated compounds; 60 min, room temperature, pH 4.5; mean ± S.D. (n = 3)
readoutLabel: log10 IC50 (log10 of the value in µM)
Reminder: these figures are log10 of reported IC50, in µM before transformation.

{"columns": ["compound", "log10 IC50"],
 "data": [
  ["COc1c(O)cc2c(c1OC)C(=O)c1ccccc1C2=O [Compound 2, 1,2-dimethoxy-3-hydroxy anthraquinone]", 2.06],
  ["Cc1c(O)cc2c(c1O)C(=O)c1ccccc1C2=O", 1.30],
  ["COc1c(O)ccc2c1C(=O)c1ccccc1C2=O", 2.28],
  ["COc1c(C)c(O)cc2c1C(=O)c1ccccc1C2=O", 1.41]
]}

Note: attention shifts to another entry.
get_value(item= `COc1ccc2c(c1)C(=O)c1ccccc1C2=O` , readout=log10 IC50) returns 0.97

* * *

Tested on: AGE formation
assayProtocol: Inhibition of AGE formation (bovine serum albumin with fructose and glucose, fluorescence)
Assay type: biochemical
experimentalContext: isolated compounds; 60 °C for 2 days, pH 7.4; mean ± S.D. (n = 3); read-out: IC50 AGEs Formation
Listing of entries alongside the reported pIC50.
Interpret pIC50 as the negative base-10 log of the concentration measured in mol/L.

Examples from the recorded data:
{"columns": ["compound", "experimentalTarget", "pIC50"],
 "data": [
  ["COc1cc2ccc(=O)oc2cc1O", "AGE formation", 5.27],
  ["O=C1c2ccccc2C(=O)c2cc(CO)c(O)cc21 [Compound 5, 2-hydroxymethyl-3-hydroxy anthraquinone]", "AGE formation", 3.45],
  ["COc1ccc2c(c1)C(=O)c1ccccc1C2=O", "AGE formation", 4.05],
  ["Cc1c(O)cc2c(c1O)C(=O)c1ccccc1C2=O", "AGE formation", 3.28],
  ["COc1cc2c(cc1CO)C(=O)c1ccccc1C2=O [Compound 4, 2-hydroxymethyl-3-methoxy anthraquinone]", "AGE formation", 3.28]
]}

get_value(item= `COc1c(O)ccc2c1C(=O)c1ccccc1C2=O` , readout=pIC50) returns 3.53

get_value(item= COc1c(O)cc2c(c1OC)C(=O)c1ccccc1C2=O [Compound 2, 1,2-dimethoxy-3-hydroxy anthraquinone] , readout=pIC50) returns 3.36

get_value(item= N=C(N)NN [AG, aminoguanidine, reference compound] , readout=pIC50) returns 3.12

* * *

experimentalTarget: electric eel AChE (EC3.1.1.7) (Electrophorus electricus, UniProt O42275)
Construct: purchased Sigma-Aldrich Chemical Company (St. Louis, MO, USA)
Sequence (O42275 24-633): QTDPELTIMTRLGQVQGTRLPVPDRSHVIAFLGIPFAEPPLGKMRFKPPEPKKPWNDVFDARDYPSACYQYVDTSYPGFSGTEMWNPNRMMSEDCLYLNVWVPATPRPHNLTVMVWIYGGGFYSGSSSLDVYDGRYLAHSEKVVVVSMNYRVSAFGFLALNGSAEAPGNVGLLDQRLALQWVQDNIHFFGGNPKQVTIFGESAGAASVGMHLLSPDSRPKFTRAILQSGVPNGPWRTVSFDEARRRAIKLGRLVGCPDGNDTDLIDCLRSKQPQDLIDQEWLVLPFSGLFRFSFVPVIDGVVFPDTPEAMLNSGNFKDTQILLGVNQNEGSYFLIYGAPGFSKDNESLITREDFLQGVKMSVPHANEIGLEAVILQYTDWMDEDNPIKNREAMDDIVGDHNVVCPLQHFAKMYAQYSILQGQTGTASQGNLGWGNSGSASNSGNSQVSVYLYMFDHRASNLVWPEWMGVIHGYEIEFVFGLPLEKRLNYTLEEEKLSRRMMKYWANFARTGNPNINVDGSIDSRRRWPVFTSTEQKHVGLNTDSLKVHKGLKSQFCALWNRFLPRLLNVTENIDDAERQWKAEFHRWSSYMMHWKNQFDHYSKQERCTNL
assayProtocol: biochemical
experimentalContext: isolated compounds; 15 min, pH 7.8; mean ± S.D. (n = 3); read-out: IC50 AChE (converted)
# note: boundary value 100 µM maps to Not satisfied; IC50 below it maps to Satisfied

INPUT: Would you kindly verify if IC50 of `COc1ccc2c(c1)C(=O)c1ccccc1C2=O` is strictly less than 100 µM?
OUTPUT: Not satisfied

INPUT: Would you kindly verify if IC50 of O=C1c2ccccc2C(=O)c2cc(CO)c(O)cc21 [Compound 5, 2-hydroxymethyl-3-hydroxy anthraquinone] is strictly less than 100 µM?
OUTPUT: Satisfied

INPUT: Would you kindly verify if IC50 of O=C1c2ccccc2C(=O)c2c(O)cc(CO)cc21 [Compound 7, 1-hydroxy-3-hydroxymethyl anthraquinone] is strictly less than 100 µM?
OUTPUT: Satisfied

INPUT: Would you kindly verify if IC50 of COc1cc2c(cc1CO)C(=O)c1ccccc1C2=O [Compound 4, 2-hydroxymethyl-3-methoxy anthraquinone] is strictly less than 100 µM?
OUTPUT: Satisfied

INPUT: Would you kindly verify if IC50 of `COc1cc2ccc(=O)oc2cc1O` is strictly less than 100 µM?
OUTPUT: Not satisfied

INPUT: Would you kindly verify if IC50 of `Cc1c(O)cc2c(c1O)C(=O)c1ccccc1C2=O` is strictly less than 100 µM?
OUTPUT: Satisfied

* * *

experimentalTarget: electric eel AChE (EC3.1.1.7) (Electrophorus electricus)
Construct: purchased Sigma-Aldrich Chemical Company (St. Louis, MO, USA)
assayProtocol: biochemical
experimentalContext: isolated compounds; 15 min, pH 7.8; mean ± S.D. (n = 3); read-out: IC50 AChE (converted)
Listing of entries alongside the reported IC50.
Report only the number, with the unit µM understood.

Examples from the recorded data:
{"columns": ["molecule", "unitsSymbol", "observedMeasurement"],
 "data": [
  ["COc1c(O)cc2c(c1OC)C(=O)c1ccccc1C2=O [Compound 2, 1,2-dimethoxy-3-hydroxy anthraquinone]", "µM", 147],
  ["COc1c(O)ccc2c1C(=O)c1ccccc1C2=O", "µM", 175],
  ["COc1ccc2cc3[n+](cc2c1OC)CCc1cc2c(cc1-3)OCO2 [Berberine, berberine, reference compound]", "µM", 0.42]
]}

Note: attention shifts to another entry.
Query `COc1c(C)c(O)cc2c1C(=O)c1ccccc1C2=O` on electric eel AChE (EC3.1.1.7) (Electrophorus electricus); IC50 returned: 87.2

* * *

experimentalTarget: horse serum BChE (EC3.1.1.8) (Equus caballus, UniProt P81908)
Construct: horse serum BChE (EC3.1.1.8); purchased Sigma-Aldrich Chemical Company (St. Louis, MO, USA); host or cells: horse serum
Sequence (P81908 whole entry): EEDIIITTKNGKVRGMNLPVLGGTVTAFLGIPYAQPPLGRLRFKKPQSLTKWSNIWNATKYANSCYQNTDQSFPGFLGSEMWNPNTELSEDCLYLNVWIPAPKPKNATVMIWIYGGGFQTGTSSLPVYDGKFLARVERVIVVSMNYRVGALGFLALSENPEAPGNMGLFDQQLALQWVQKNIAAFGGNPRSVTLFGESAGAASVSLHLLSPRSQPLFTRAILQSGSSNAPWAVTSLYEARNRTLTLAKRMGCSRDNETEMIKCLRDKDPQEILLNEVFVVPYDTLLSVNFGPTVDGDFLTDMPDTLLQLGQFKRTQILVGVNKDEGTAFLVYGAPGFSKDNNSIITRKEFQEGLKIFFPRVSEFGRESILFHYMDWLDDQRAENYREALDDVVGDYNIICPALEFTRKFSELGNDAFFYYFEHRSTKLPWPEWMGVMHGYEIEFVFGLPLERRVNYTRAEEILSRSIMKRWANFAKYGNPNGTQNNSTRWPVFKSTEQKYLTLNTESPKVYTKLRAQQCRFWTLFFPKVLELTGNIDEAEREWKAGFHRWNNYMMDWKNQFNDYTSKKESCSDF
assayProtocol: biochemical
experimentalContext: isolated compounds; 15 min, pH 7.8; mean ± S.D. (n = 3); read-out: IC50 BChE
Procedure: n-Hexane (Hx), ethyl acetate (EA), n-butanol (BuOH), methanol (MeOH), ethanol (EtOH), and distilled water were used for extraction, fractionation, and open column chromatography. […] Chemical shifts are expressed as parts per million (ppm) on the δ scale, and coupling constants (J) are shown in Hertz. […] ChE activity was detected by AChE- or BChE-mediated hydrolysis of […] for 15 min to form thiocholine and the yellow 5-thio-2-nitrobenzoate anion. […]
Listing of entries alongside the reported IC50.
Report only the number, with the unit µM understood.

get_value(item= O=C1c2ccccc2C(=O)c2cc(CO)c(O)cc21 [Compound 5, 2-hydroxymethyl-3-hydroxy anthraquinone] , readout=IC50) returns 459

get_value(item= COc1c(O)cc2c(c1OC)C(=O)c1ccccc1C2=O [Compound 2, 1,2-dimethoxy-3-hydroxy anthraquinone] , readout=IC50) returns 442

get_value(item= `COc1c(O)ccc2c1C(=O)c1ccccc1C2=O` , readout=IC50) returns 450

get_value(item= `COc1ccc2c(c1)C(=O)c1ccccc1C2=O` , readout=IC50) returns 230

get_value(item= `COc1cc2ccc(=O)oc2cc1O` , readout=IC50) returns 50.4

* * *

experimentalTarget: horse serum BChE (EC3.1.1.8) (Equus caballus, UniProt P81908)
Construct: horse serum BChE (EC3.1.1.8); purchased Sigma-Aldrich Chemical Company (St. Louis, MO, USA); host or cells: horse serum
assayProtocol: biochemical
experimentalContext: IC50 BChE
Experimental: n-Hexane (Hx), ethyl acetate (EA), n-butanol (BuOH), methanol (MeOH), ethanol (EtOH), and distilled water were used for extraction, fractionation, and open column chromatography. […] Chemical shifts are expressed as parts per million (ppm) on the δ scale, and coupling constants (J) are shown in Hertz. […] ChE activity was detected by AChE- or BChE-mediated hydrolysis of […] for 15 min to form thiocholine and the yellow 5-thio-2-nitrobenzoate anion. […]
readoutLabel: IC50

get_value(item= `CC[C@H](CC[C@@H](C)[C@H]1CC[C@H]2[C@@H]3CC=C4C[C@@H](O)CC[C@]4(C)[C@H]3CC[C@]12C)C(C)C` , readout=IC50) returns > 500 µM

* * *

experimentalTarget: BACE1 (Homo sapiens)
assayProtocol: BACE1 FRET assay kit (β-secretase) inhibition
experimentalContext: isolated compounds; 60 min, room temperature, pH 4.5; mean ± S.D. (n = 3)
readoutLabel: IC50

{"columns": ["compound", "observedMeasurement"],
 "data": [
  ["COc1cc2c(cc1CO)C(=O)c1ccccc1C2=O [Compound 4, 2-hydroxymethyl-3-methoxy anthraquinone]", "> 200 µM"],
  ["O=C1c2ccccc2C(=O)c2cc(CO)c(O)cc21 [Compound 5, 2-hydroxymethyl-3-hydroxy anthraquinone]", "> 200 µM"]
]}

Note: attention shifts to another entry.
Query `COc1cc2ccc(=O)oc2cc1O` on BACE1 (Homo sapiens); IC50 returned: > 200 µM
